tested on: HL-60; assay: Antiproliferative activity against human HL60 cells assessed as reduction in cell viability after 48 hrs by MTT assay; type: functional, cell-based; settings: HL-60, 48 h
parameter measured: pIC50
Scale for pIC50: -log10 of concentration given in mol/L; no unit attached.

compound: C[C@@]1(CO)[C@H](O)CC[C@@]2(C)[C@H]1CC[C@H]1C[C@@H]3C[C@@]12CC[C@]3(O)CO [APHIDICOLIN]
pIC50: 4.61

Next compound, please.
Prompt: Return reported pIC50; argument: C[C@@]1(CO)[C@H](O)CC[C@@]2(C)[C@H]1C(=O)C[C@H]1C[C@@H]3C[C@@]12CC[C@]3(O)CO
Response: 5.21
